assay: Cytotoxicity in HEK293; conditions: human, HEK293 cells
pIC50: −log10 of the molar value.
Readout kind: pIC50

Enquiry: Name the recorded pIC50 for CCCCNc1ccc(C(=O)OCCN(C)C)cc1.Cl [Tetracaine] .
Return: < 4.30

====

molecular target: RyR2 (Mus musculus); construct: other: cells derived from a CPVT mouse model (R176Q/+ ventricular myocyte); test: Ca2+ spark frequency assay in ventricular myocytes from CPVT mouse model (R176Q/+); settings: cells derived from a CPVT mouse model (R176Q/+ ventricular myocytes); read-out: IC50 (inhibition of calcium spark frequency)
Sequence (E9Q401 whole entry R176Q, form open): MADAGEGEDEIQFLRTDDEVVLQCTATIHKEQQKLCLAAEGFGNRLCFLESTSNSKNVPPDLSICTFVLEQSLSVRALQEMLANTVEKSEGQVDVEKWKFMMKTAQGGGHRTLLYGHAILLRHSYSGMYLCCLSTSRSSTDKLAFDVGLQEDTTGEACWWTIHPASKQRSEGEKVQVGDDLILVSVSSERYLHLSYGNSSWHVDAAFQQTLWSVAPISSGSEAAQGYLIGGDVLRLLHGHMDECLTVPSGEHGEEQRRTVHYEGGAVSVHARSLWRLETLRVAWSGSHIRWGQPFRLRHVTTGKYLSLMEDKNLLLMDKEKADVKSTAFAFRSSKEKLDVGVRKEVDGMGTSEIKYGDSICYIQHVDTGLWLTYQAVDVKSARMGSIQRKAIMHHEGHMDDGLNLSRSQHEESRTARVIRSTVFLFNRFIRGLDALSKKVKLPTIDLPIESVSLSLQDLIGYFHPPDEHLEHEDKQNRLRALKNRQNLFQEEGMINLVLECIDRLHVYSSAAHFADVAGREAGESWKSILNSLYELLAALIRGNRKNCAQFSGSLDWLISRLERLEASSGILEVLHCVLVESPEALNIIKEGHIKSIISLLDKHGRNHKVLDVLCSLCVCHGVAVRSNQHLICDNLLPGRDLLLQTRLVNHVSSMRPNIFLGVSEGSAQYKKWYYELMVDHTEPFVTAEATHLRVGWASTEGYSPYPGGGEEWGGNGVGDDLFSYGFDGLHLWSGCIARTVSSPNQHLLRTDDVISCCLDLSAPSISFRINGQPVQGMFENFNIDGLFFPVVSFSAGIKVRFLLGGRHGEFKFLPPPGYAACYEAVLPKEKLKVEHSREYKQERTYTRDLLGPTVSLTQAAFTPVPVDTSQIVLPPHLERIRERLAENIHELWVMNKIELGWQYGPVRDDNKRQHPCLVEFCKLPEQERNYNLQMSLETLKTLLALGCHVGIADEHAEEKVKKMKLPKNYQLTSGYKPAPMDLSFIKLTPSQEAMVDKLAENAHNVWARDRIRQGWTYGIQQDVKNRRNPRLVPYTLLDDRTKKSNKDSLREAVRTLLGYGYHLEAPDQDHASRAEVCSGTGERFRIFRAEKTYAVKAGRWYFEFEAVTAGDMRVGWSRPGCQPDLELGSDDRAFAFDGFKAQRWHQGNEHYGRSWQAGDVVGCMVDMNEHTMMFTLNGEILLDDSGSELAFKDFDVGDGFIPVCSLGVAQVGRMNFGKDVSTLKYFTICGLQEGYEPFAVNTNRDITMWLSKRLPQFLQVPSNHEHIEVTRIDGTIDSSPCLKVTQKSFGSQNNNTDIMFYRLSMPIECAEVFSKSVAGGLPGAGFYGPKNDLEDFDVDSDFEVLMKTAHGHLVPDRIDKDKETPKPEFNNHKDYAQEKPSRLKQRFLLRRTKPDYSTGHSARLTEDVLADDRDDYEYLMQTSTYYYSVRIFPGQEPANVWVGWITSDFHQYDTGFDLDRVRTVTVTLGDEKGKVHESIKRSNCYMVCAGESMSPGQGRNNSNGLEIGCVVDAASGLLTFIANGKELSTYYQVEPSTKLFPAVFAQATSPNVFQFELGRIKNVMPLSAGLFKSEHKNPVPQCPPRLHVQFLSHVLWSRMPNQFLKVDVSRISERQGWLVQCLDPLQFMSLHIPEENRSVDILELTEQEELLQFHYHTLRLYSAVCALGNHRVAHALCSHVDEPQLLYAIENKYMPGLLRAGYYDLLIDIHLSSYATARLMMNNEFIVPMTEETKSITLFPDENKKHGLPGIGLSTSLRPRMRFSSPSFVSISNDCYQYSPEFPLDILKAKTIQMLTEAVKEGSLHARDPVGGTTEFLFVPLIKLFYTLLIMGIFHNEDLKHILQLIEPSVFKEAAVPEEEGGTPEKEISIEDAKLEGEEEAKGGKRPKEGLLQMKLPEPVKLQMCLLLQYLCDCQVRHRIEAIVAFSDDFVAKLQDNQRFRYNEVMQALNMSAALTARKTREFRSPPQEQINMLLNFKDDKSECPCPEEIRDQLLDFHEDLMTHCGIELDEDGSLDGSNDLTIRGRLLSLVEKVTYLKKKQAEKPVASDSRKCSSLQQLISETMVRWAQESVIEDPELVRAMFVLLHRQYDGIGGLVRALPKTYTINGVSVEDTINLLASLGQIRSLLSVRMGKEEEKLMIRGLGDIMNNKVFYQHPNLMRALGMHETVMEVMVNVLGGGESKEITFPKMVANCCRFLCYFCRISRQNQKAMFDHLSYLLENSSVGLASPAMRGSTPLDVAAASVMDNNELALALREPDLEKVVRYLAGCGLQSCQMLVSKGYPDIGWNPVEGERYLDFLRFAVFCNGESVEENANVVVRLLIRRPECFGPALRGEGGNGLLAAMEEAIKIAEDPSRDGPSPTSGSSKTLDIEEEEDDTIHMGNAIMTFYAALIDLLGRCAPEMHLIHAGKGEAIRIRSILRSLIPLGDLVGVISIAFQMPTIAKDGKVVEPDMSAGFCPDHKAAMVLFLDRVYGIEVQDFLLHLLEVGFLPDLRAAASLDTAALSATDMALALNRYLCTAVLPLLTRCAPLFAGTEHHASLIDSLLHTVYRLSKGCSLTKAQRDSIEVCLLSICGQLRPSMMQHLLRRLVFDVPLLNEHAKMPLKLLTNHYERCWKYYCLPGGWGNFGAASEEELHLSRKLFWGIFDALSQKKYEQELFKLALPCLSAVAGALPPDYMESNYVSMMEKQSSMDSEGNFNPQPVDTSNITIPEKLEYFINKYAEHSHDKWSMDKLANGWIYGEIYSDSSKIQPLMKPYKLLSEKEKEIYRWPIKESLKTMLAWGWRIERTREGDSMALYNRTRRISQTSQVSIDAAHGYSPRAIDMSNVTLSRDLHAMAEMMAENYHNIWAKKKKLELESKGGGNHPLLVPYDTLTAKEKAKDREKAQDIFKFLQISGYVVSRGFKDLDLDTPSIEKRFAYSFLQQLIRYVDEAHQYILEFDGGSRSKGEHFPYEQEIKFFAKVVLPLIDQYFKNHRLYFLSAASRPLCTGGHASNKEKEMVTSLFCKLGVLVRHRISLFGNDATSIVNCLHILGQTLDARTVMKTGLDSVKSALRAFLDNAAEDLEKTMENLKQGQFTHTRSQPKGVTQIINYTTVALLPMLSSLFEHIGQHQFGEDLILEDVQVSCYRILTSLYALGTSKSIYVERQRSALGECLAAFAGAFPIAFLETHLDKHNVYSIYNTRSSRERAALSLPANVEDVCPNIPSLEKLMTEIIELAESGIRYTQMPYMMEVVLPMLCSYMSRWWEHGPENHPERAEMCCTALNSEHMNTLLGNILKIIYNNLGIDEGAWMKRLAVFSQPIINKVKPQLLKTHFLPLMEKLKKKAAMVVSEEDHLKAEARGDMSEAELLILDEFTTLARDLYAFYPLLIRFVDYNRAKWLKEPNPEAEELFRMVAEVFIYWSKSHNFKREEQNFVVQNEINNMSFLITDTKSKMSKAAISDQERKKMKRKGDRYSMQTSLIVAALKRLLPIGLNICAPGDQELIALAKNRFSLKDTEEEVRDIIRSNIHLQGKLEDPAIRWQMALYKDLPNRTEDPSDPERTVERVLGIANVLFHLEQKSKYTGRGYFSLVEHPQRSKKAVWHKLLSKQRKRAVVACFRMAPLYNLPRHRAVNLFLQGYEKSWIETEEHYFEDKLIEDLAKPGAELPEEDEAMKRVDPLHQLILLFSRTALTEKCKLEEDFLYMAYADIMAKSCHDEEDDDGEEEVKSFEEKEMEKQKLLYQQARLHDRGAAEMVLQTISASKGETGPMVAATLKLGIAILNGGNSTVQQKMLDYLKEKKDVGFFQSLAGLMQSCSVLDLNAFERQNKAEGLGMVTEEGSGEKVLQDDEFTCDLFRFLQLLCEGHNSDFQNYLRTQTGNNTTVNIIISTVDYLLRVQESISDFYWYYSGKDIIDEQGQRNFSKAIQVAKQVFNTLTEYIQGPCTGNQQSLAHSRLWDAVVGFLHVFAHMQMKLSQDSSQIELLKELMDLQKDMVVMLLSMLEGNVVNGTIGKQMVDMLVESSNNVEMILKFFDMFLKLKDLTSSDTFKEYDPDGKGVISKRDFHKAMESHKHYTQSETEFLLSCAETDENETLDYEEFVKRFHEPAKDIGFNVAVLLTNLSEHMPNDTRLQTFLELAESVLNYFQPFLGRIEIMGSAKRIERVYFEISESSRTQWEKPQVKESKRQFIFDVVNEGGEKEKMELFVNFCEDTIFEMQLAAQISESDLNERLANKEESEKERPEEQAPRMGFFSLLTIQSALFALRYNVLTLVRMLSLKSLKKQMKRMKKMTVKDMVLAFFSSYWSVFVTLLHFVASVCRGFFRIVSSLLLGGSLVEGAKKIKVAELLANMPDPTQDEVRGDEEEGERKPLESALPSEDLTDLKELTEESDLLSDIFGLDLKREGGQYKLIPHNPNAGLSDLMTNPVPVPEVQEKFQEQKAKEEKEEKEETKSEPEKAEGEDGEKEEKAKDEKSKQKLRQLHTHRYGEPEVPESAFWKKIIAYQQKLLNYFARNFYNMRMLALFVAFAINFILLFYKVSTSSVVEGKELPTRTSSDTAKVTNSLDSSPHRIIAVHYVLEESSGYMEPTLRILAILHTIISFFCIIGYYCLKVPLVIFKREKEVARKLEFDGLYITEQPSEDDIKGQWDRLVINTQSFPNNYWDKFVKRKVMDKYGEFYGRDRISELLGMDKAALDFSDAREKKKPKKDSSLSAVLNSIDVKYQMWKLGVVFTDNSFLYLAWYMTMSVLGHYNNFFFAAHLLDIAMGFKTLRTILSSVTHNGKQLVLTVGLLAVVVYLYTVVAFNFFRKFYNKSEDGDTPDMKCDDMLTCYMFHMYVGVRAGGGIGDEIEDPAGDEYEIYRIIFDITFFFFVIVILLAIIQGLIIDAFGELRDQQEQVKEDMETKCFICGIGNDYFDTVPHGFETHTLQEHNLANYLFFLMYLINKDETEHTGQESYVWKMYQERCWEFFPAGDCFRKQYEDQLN
Each record here notes measured log10 of IC50.
A value of 2 here means IC50 of 100 in µM, since values are log10.

Example results:
Compound	Measurement target	log10 of IC50
CCCCNc1ccc(OC(C)=O)cc1C	RyR2 (Mus musculus)	-0.20
CCCCNc1cc(OC)c(C(=O)OCCN(CC)CC)cc1Cl	RyR2 (Mus musculus)	-1.96
CCCCNc1ccc(C(=O)OCCN(CC)CC)c(OC)c1	RyR2 (Mus musculus)	-1.46
CCCCNc1ccc(C(=O)OCCNCC)cc1C	RyR2 (Mus musculus)	-0.10

// next entry
Enquiry: Can you share its log10 of IC50? I mean this compound: CCCCNc1ccc(C(=O)O)cc1N(CCCC)CCCC
Return: -0.30

The reported numbers originate from patent US20160311760A1.
